B1: Peroxisome proliferator-activated receptor delta, residues 71 to 145; numbered along this chain, Q03181 (parent)
chain: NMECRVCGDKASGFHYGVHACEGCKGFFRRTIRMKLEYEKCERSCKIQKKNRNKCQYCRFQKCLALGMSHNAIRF

Variants of: B1
experimental.details: abundance fitness (aPCA) (normalised: wild type 0, dead -1); higher = more abundant; growth selection in yeast, the domain comes from the species named
reported.conditions: Homo sapiens
property.name: abundance fitness
Give bare numbers.

[[record]]
mutant_label = "L64V"
number = -0.022


Hi there! I need abundance fitness for each item below, if you can.
1. G26R
2. K40H
3. R43M
4. N71H

-0.099
0.08
-0.043
-0.173

Hi team, please reply with abundance fitness for each item in this list.
1. R43T
2. G13Q
3. R30G
4. M2H
5. A20T
6. F60I
7. K46V

-0.161
-0.322
-0.335
-0.276
-0.057
-0.399
0.023
